folding enthalpy for assorted sequences
assay: folding enthalpy; higher = less favourable; fluorescence melt of hairpins on a sequencing array, two-state fit; details: sodium 0.088 M
Parameter: folding enthalpy (kcal/mol)

INSERT INTO measurements (sequence_string, parameter, scale_unit, readout_value) VALUES
  ('GTATATCGAAAGATCTAC (((.(((....))).)))', 'folding enthalpy', 'kcal/mol', -19.5),
  ('GTAATTCGAAAGAAATAC (((.(((....))).)))', 'folding enthalpy', 'kcal/mol', -16.9),
  ('GCAGGCGAAAGCCGTTGC ((((((....)))..)))', 'folding enthalpy', 'kcal/mol', -12.6),
  ('GGGCTTTCGAAAGAACCC (((..(((....))))))', 'folding enthalpy', 'kcal/mol', -40),
  ('GGCGGAACGAAAGTTGCC (((..(((....))))))', 'folding enthalpy', 'kcal/mol', -19.5),
  ('GTCGCCGAAAGGCACGAC ((((((....)))..)))', 'folding enthalpy', 'kcal/mol', -15.6),
  ('GCCGATGGAAACGTCGGC (((((.(....).)))))', 'folding enthalpy', 'kcal/mol', -44.9),
  ('GCGACTATTCGC ((((....))))', 'folding enthalpy', 'kcal/mol', -19.3),
  ('GATCAAAAGCTTGATC ((((((....))))))', 'folding enthalpy', 'kcal/mol', -25.6),
  ('GATCGATGGGTCGATC ((((((....))))))', 'folding enthalpy', 'kcal/mol', -39.7),
  ('GTCGGGGGAAACCTCGAC ((((.((....)).))))', 'folding enthalpy', 'kcal/mol', -44.2),
  ('GAGCCACGAAAGTGCCTC (((.(((....))).)))', 'folding enthalpy', 'kcal/mol', -16.9),
  ('GAAGCACGAAAGTGTTC (((.(((....))))))', 'folding enthalpy', 'kcal/mol', -13.4),
  ('GTATCGCCGAAAGGCTAC (((..(((....))))))', 'folding enthalpy', 'kcal/mol', -6.58),
  ('GGGTTCGAAAGAAACCC ((((((....))).)))', 'folding enthalpy', 'kcal/mol', -34.7),
  ('GTGCGCGGAAACGCGTAC ((.((((....)))).))', 'folding enthalpy', 'kcal/mol', -20.1),
  ('GTATTGGGAAACTAATAC (((((.(....).)))))', 'folding enthalpy', 'kcal/mol', -22.2),
  ('GCTGAGCGAAAGCGCGGC ((.(.((....)).).))', 'folding enthalpy', 'kcal/mol', -26.3),
  ('GCTTCGCGAAAGCGGCGC ((..(((....)))..))', 'folding enthalpy', 'kcal/mol', -15.6),
  ('GAGGTACGAAAGTAACTC (((.(((....))).)))', 'folding enthalpy', 'kcal/mol', -38.6),
  ('GGAGGGCGAAAGCCTCC (((.(((....))))))', 'folding enthalpy', 'kcal/mol', -18.7),
  ('GGACGCGAAAGCGGTTCC ((((((....)))..)))', 'folding enthalpy', 'kcal/mol', -11.6),
  ('GAACTCCGAAAGGATTC (((.(((....))))))', 'folding enthalpy', 'kcal/mol', -17),
  ('GGTAGTGGAAACGCTACC (((((.(....).)))))', 'folding enthalpy', 'kcal/mol', -34.9),
  ('GGGTAACGAAAGTTCCCC (((.(((....))).)))', 'folding enthalpy', 'kcal/mol', -27.4);
